tested on: MYC transcriptional activity; test: MYC luciferase reporter assay in HEK293T cells; assay type: cell-based, human; settings: Homo sapiens, HEK-293T, read-out: EC50 in MYC luciferase reporter assay
assayEndpoint: EC50 (nM)
Respond numerically; units are nM and should not be typed.

Query :: // Input: C#Cc1ccc(Oc2ccc(OCC)cc2)c(NC(=O)c2ccc(CNC(=O)C=C)cc2)c1 . Output its EC50 only.
Result :: 1400
